assay: Fraction unbound in dog plasma; type: in vitro ADME; settings: read-out: Dog Fu (plasma)
attribute.measured: fraction unbound
Could you respond with only the numeric value?

IN: For the compound shown here, Cc1c(N2CCc3nc(C4(F)CC4)sc3C2)nc2nn(C)c(=O)n2c1C , give the reported fraction unbound.
OUT: 0.232

====

Assignment: determine reported Emax at 30 µM for the given compounds.
Molecular target: Human M4 (Homo sapiens, UniProt P08173)
Sequence (P08173 whole entry): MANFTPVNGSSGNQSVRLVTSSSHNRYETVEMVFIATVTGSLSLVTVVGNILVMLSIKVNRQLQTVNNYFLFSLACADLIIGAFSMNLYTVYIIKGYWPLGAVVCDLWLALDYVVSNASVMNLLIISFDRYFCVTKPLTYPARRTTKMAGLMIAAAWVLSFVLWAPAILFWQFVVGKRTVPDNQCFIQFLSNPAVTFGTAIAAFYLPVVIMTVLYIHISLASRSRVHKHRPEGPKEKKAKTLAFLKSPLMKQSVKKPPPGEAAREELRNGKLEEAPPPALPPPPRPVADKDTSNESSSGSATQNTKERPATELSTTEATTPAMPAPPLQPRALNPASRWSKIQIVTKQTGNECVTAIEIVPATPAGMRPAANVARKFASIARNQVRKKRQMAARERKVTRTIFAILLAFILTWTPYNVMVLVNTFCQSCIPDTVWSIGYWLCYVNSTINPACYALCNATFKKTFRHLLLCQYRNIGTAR
Test: M4 cell-based functional assay (calcium mobilization)
Design: expressed in transfected cells
Details: % ACh maximum at 30 μM
Description: Human (h) and rat (r) M4 CDNAs, along with the chimeric G protein Gqi5, were transfected into Chinese hamster ovary (CHO-K1) cells purchased from the American Type Culture Collection using Lipofectamine2000. […] The high throughput assay was employed to measure receptor-induced mobilization of intracellular calcium to determine compound activity. […] After a ˜2.5 minute incubation period, a submaximal (EC20) concentration of acetylcholine was added, and the response measured. […]
Expressed in %, but write only the number.

IN: Name the recorded Emax at 30 µM for Cc1c(C#N)nnc(N2CCc3nc(Nc4ccc(F)cc4)sc3C2)c1C .
OUT: 49

IN: Which Emax at 30 µM is reported for this compound? Cc1c(N2CCc3nc(C4CC4)sc3C2)nc2n[nH]c(=O)n2c1C
OUT: 91

IN: What Emax at 30 µM value was documented for this compound, Cc1cc(C#N)cnc1N1CCc2nc(-c3cnn(C4CCC4)c3)sc2C1 ?
OUT: 54

IN: Look up Emax at 30 µM for this compound: Cc1c(N2CCc3nc(C4CC4)sc3C2)nc2nn(C)c(=O)n2c1C
OUT: 121

IN: Param item = Cc1cc(C#N)cnc1N1CCc2nc(C3CC3)sc2C1 ; retrieve measured Emax at 30 µM.
OUT: 84

IN: What does the data say about its Emax at 30 µM? Entry: Cc1cc(-c2nc3c(s2)CN(c2ncc(C#N)cc2C)CC3)ccn1
OUT: 59

IN: Quick one: Emax at 30 µM for CCOC(=O)c1nc2c(s1)CN(c1nc3nccnc3cc1C)CC2 ?
OUT: 86

IN: Which value of Emax at 30 µM has been reported for Cc1cc2nc(C(=O)N3CC4(COC4)C3)cc(=O)n2nc1N1CCc2nc(Br)sc2C1 in the records?
OUT: 66

IN: Tell me the measured Emax at 30 µM of Cc1cc2nc(C(=O)NC3CC(CC(F)(F)F)C3)cc(=O)n2nc1N1CCc2nc(Br)sc2C1 (stereo not drawn) , please.
OUT: 87
